System: Mus musculus
Test summary: Antiinflammatory activity against ICR mouse assessed as inhibition of TPA-induced ear edema compound administered topically preincubated 30 mins before TPA challenge
Format: functional
Would you kindly list ID50 for each of these compounds?
Answers are plain numbers, in mg.

Some compounds with known ID50 results, for comparison:
Compound	Unit annotation	Value
CC(C)(O)CCC(=O)[C@@](C)(O)[C@H]1[C@H](O)C[C@@]2(C)[C@@H]3CC=C4[C@@H](C=C(O[C@@H]5O[C@H](CO)[C@@H](O)[C@H](O)[C@H]5O)C(=O)C4(C)C)[C@]3(C)C(=O)C[C@]12C [BRYOAMARIDE]	mg	0.7
COc1ccc2c(c1)c(CC(=O)O)c(C)n2C(=O)c1ccc(Cl)cc1	mg	0.3
O=c1c(O)c(-c2ccc(O)c(O)c2)oc2cc(O)cc(O)c12	mg	1.6
C[C@H](CCC(=O)C(C)(C)O)[C@H]1CC[C@@]2(C)[C@@H]3CC=C4[C@@H](CC[C@H](O[C@@H]5O[C@H](CO)[C@@H](O)[C@H](O)[C@H]5O[C@@H]5O[C@@H](C)[C@H](O)[C@@H](O)[C@H]5O)C4(C)C)[C@]3(C)C(=O)C[C@]12C [BRYONIOSIDE G]	mg	0.2
C[C@H](C(O)CC(O)C(C)(C)O[C@@H]1O[C@H](CO)[C@@H](O)[C@H](O)[C@H]1O)[C@H]1CC[C@@]2(C)[C@@H]3CC=C4[C@@H](CC[C@H](O)C4(C)C)[C@]3(C)C(=O)C[C@]12C (stereo partly specified) [BRYONIOSIDE E]	mg	0.2

With those in mind, consider the next compound.
query: Give Mus musculus ID50 for the following compound: CC(=O)O[C@@H]1[C@@H](O)[C@@H](O)[C@H](O[C@H]2[C@H](O[C@H]3CC[C@@H]4C(=CC[C@@H]5[C@@]4(C)C(=O)C[C@]4(C)[C@@H]([C@H](C)CC[C@@H](O)C(C)(C)O)CC[C@@]54C)C3(C)C)O[C@H](CO)[C@@H](O)[C@@H]2O)O[C@H]1C [BRYONIOSIDE C]
result: 0.3

----------
Test system: Raji
Test summary: Inhibition of TPA-induced EBV-early antigen activation in human Raji cells at 100 molar ratio after 48 hrs relative to TPA; values are per cent of control
Condition summary: human gammaherpesvirus 4
Readout name: level, % of control (%)
One number for each entry, in %.

These solved cases illustrate the format of a correct answer.
Molecule	Readout name	Value
C[C@H](CC[C@@H](O)C(C)(C)O[C@@H]1O[C@H](CO)[C@@H](O)[C@H](O)[C@H]1O)[C@H]1CC[C@@]2(C)[C@@H]3CC=C4[C@@H](CC[C@H](O)C4(C)C)[C@]3(C)C(=O)C[C@]12C [BRYONIOSIDE A]	level, % of control	75.1
C[C@H](CC[C@@H](O)C(C)(C)O)[C@H]1CC[C@@]2(C)[C@@H]3C[C@@H]4O[C@]45[C@@H](CC[C@H](O[C@@H]4O[C@H](CO)[C@@H](O)[C@H](O)[C@H]4O)C5(C)C)[C@]3(C)C(=O)C[C@]12C [5ALPHA,6ALPHA-EPOXYCABENOSIDE D]	level, % of control	70
C[C@H](CCC(=O)C(C)(C)O)[C@H]1CC[C@@]2(C)[C@@H]3CC=C4[C@@H](CC[C@H](O[C@@H]5O[C@H](CO)[C@@H](O)[C@H](O)[C@H]5O)C4(C)C)[C@]3(C)C(=O)C[C@]12C [BRYONIOSIDE F]	level, % of control	71.4

The record that follows has no level, % of control shown yet.
query: Read off the recorded level, % of control for C[C@H](CCC(=O)C(C)(C)O)[C@H]1CC[C@@]2(C)[C@@H]3CC=C4[C@@H](CC[C@H](O[C@@H]5O[C@H](CO)[C@@H](O)[C@H](O)[C@H]5O[C@@H]5O[C@@H](C)[C@H](O)[C@@H](O)[C@H]5O)C4(C)C)[C@]3(C)C(=O)C[C@]12C [BRYONIOSIDE G]
result: 74.2
